Test: Cytotoxicity against hTERT-immortalized human OKF6 cells assessed as reduction in cell density at 10 uM incubated for 24 hrs by trypan blue dye based light inverted microscopic analysis
Settings: okf6, 24 h
ASSAY ENDPOINT: Activity

Example results:
> print(dat)
                                        mol     result
1  COc1ccc(Cc2cn(C)c3ccccc23)cc1C(=O)NS(=O)(=O)c1ccc2ccccc2c1      Toxic
2  COc1ccc(Cc2cn(C)c3ccc([N+](=O)[O-])cc23)cc1C(=O)NS(=O)(=O)c1cccc(F)c1      Toxic
3  COc1ccc(Cc2cn(C)c3ccc([N+](=O)[O-])cc23)cc1C(=O)NS(=O)(=O)c1ccc([N+](=O)[O-])cc1      Toxic
4  COc1ccc(Cc2cn(C)c3ccccc23)cc1C(=O)NS(=O)(=O)c1ccc(F)cc1  Non-Toxic
5  COc1ccc(Cc2cn(C)c3ccccc23)cc1C(=O)NS(=O)(=O)c1cccc(F)c1  Non-Toxic

Attention now shifts to the item below.
# lookup: Activity of COc1ccc(Cc2cn(C)c3ccccc23)cc1C(=O)NS(=O)(=O)c1cccc([N+](=O)[O-])c1 Non-Toxic

---

System: Aggregatibacter actinomycetemcomitans
Experiment: Antibacterial activity against Aggregatibacter actinomycetemcomitans JP2 assessed as bacterial growth inhibition at 1 to 100 uM treated for 24 hrs by WST1 assay
Assay type: functional, organism-based
Details: dose microM 1-100, time 24.0 hrs
Calls of active or inactive are those of the source. The calls are words filed in the database; no cut-off is given here.
ASSAY ENDPOINT: growth inhibition (GI)

Example entries and their recorded answers appear below.
> print(dat)
                                        mol          assay.endpoint    result
1  COc1ccc(Cc2cn(C)c3ccc([N+](=O)[O-])cc23)cc1C(=O)NS(=O)(=O)c1cccc(F)c1  growth inhibition (GI)  inactive
2  COc1ccc(Cc2cn(C)c3ccc([N+](=O)[O-])cc23)cc1C(=O)NS(=O)(=O)c1ccc([N+](=O)[O-])cc1  growth inhibition (GI)  inactive
3  COc1ccc(Cc2cn(C)c3ccccc23)cc1C(=O)NS(=O)(=O)c1ccc(F)cc1  growth inhibition (GI)  inactive
4  COc1ccc(Cc2cn(C)c3ccccc23)cc1C(=O)NS(=O)(=O)c1cccc(F)c1  growth inhibition (GI)  inactive
5  COc1ccc(Cc2cn(C)c3ccccc23)cc1C(=O)NS(=O)(=O)c1ccc2ccccc2c1  growth inhibition (GI)  inactive

Here is another compound to look at.
Give its growth inhibition (GI) value. Item: COc1ccc(Cc2cn(C)c3ccccc23)cc1C(=O)NS(=O)(=O)c1cccc([N+](=O)[O-])c1 inactive

---

Assay: Cytotoxicity against hTERT-immortalized human OKF6 cells assessed as cell viability at 10 uM incubated for 24 hrs by Annexin V-FITC/propidium iodide staining based flow cytometric analysis relative to control
Settings: read-out: Activity
Can you tell me viability at 24 h, 10 µM for the items I'm about to list?
Numbers only, in %.

> print(dat)
                                        mol  recorded.number
1  COc1ccc(Cc2cn(C)c3ccccc23)cc1C(=O)NS(=O)(=O)c1ccc(F)cc1               49
2  COc1ccc(Cc2cn(C)c3ccccc23)cc1C(=O)NS(=O)(=O)c1cccc(F)c1               49
3  COc1ccc(Cc2cn(C)c3ccc([N+](=O)[O-])cc23)cc1C(=O)NS(=O)(=O)c1cccc(F)c1               49
4  COc1ccc(Cc2cn(C)c3ccccc23)cc1C(=O)NS(=O)(=O)c1ccc2ccccc2c1               49
5  COc1ccc(Cc2cn(C)c3ccccc23)cc1C(=O)NS(=O)(=O)c1cccc([N+](=O)[O-])c1               49

For the next question, use this compound.
What does the data say about its viability at 24 h, 10 µM? Entry: COc1ccc(Cc2cn(C)c3ccc([N+](=O)[O-])cc23)cc1C(=O)NS(=O)(=O)c1ccc([N+](=O)[O-])cc1 49
